Numbers sourced from patent US7279494B2.

The following molecules have recorded MIC on S. pneumoniae UC9912.
Note: unit mg/L is implicit; provide only the numeric part.

Consider the molecule `CC(=O)NC[C@H]1CN(c2ccc([C@H]3[C@@H]4CN(C(=O)[C@@H](O)CO)C[C@@H]43)c(F)c2)C(=O)O1` . State its measured MIC. 1

Supply recorded MIC for `CC(=O)NC[C@H]1CN(c2ccc([C@H]3[C@@H]4CN(C(=O)C(F)F)C[C@@H]43)c(F)c2)C(=O)O1` here. 1

Quote MIC reported for CCC(=O)NC[C@H]1CN(c2ccc([C@H]3[C@@H]4C[S+]([O-])C[C@@H]43)c(F)c2)C(=O)O1 (stereo partly drawn) please. 1

Annotate the molecule `NC(=O)[C@H]1CN(c2ccc([C@H]3[C@@H]4CS(=O)(=O)C[C@@H]43)c(F)c2)C(=O)O1` with its measured MIC. 2

Return value of MIC for input O=C(NC[C@H]1CN(c2ccc([C@H]3[C@@H]4C[S+]([O-])C[C@@H]43)c(F)c2)C(=O)O1)C1CCC1 (stereo partly drawn) , no commentary. 2

Quick one: give measured MIC for N#CCC(=O)NC[C@H]1CN(c2cc(F)c([C@H]3[C@@H]4C[S+]([O-])C[C@@H]43)c(F)c2)C(=O)O1 (stereo partly drawn) 1

* * *

Tested on: S. pneumoniae UC9912
assay-readout: MIC

Supply reported MIC belonging to this compound: CC(=O)NC[C@H]1CN(c2ccc([C@H]3[C@@H]4CN(C(=O)CO)C[C@@H]43)c(F)c2)C(=O)O1 [Example 5] 0.25 µg/mL

Tell me measured MIC for CC(=O)NC[C@H]1CN(c2ccc([C@H]3[C@@H]4CS(=O)(=O)C[C@@H]43)cc2)C(=O)O1 [Example 19] please. 1 µg/mL

Read off the recorded MIC for CCC(=O)NC[C@H]1CN(c2ccc([C@H]3[C@@H]4CN(C=O)C[C@@H]43)c(F)c2)C(=O)O1 [Example 22] 0.5 µg/mL

Tell me MIC reported for CCC(=O)NC[C@H]1CN(c2cc(F)c([C@H]3[C@@H]4CS(=O)(=O)C[C@@H]43)c(F)c2)C(=O)O1 [Example 59] 1 µg/mL

Please report the measured MIC for O=C(NC[C@H]1CN(c2cc(F)c([C@H]3[C@@H]4CS(=O)(=O)C[C@@H]43)c(F)c2)C(=O)O1)C1CC1 [Example 62] 1 µg/mL

Consider the compound CC(=O)NC[C@H]1CN(c2ccc([C@H]3[C@@H]4CN(C(=O)[C@@H]5CCCO5)C[C@@H]43)c(F)c2)C(=O)O1 [Example 42] and give its recorded MIC. 4 µg/mL

Output MIC of CC(=O)NCC(=O)N1C[C@@H]2[C@H](C1)[C@H]2c1ccc(N2C[C@H](CNC(C)=O)OC2=O)cc1F [Example 36] 4 µg/mL

Tell me MIC reported for CCC(=O)NC[C@H]1CN(c2ccc([C@H]3[C@@H]4CS(=O)(=O)C[C@@H]43)c(F)c2)C(=O)O1 [Example 51] 1 µg/mL

Give MIC for the following compound: CC(=O)NC[C@H]1CN(c2ccc([C@H]3[C@@H]4CN(C(=O)[C@@H](O)C(F)(F)F)C[C@@H]43)c(F)c2)C(=O)O1 [Example 33] 2 µg/mL

Query MIC for CC(=O)NC[C@H]1CN(c2ccc([C@H]3[C@@H]4CN(CCF)C[C@@H]43)c(F)c2)C(=O)O1 [Example 46] 2 µg/mL

Tell me its MIC given CC(=O)NC[C@H]1CN(c2ccc([C@H]3[C@@H]4CN(N(C)C)C[C@@H]43)c(F)c2)C(=O)O1 [Example 49] as the entry. > 64 µg/mL

Specify reported MIC for the compound shown: CC(=O)NC[C@H]1CN(c2ccc([C@H]3[C@@H]4CSC[C@@H]43)c(F)c2)C(=O)O1 [Example 1] 1 µg/mL

Indicate its recorded MIC; the compound in question is CN/C(=C\[N+](=O)[O-])N1C[C@@H]2[C@H](C1)[C@H]2c1ccc(N2C[C@H](CNC(C)=O)OC2=O)cc1F [Example 75] 2 µg/mL

# return recorded MIC for entry N#CCC(=O)NC[C@H]1CN(c2cc(F)c([C@H]3[C@@H]4CS(=O)(=O)C[C@@H]43)c(F)c2)C(=O)O1 [Example 71] 2 µg/mL

* * *

System: S. pneumoniae UC9912
# strict inequality: MIC < 1 µg/mL yields Condition met, everything else yields Condition not met

Below 1 µg/mL on MIC? Entry CC(=O)NC[C@H]1CN(c2ccc([C@H]3[C@@H]4CN(C(=O)C(C)(C)O)C[C@@H]43)c(F)c2)C(=O)O1 [Example 32] Condition met

Does the reported MIC of O=C(CO)NC[C@H]1CN(c2ccc([C@H]3[C@@H]4CS(=O)(=O)C[C@@H]43)c(F)c2)C(=O)O1 [Example 67] stay below 1 µg/mL? Condition not met

Quick check: MIC of CC(=O)NC[C@H]1CN(c2ccc([C@H]3[C@@H]4CN(C(=O)c5ccno5)C[C@@H]43)c(F)c2)C(=O)O1 [Example 37] under 1 µg/mL? Condition met

For O=C(CO)NC[C@H]1CN(c2ccc([C@H]3[C@@H]4C[S+]([O-])C[C@@H]43)c(F)c2)C(=O)O1 (stereo partly shown) [Example 66] , is the recorded MIC below the cut-off of 1 µg/mL? Condition not met

I wonder whether O=C(CO)N1C[C@@H]2[C@H](C1)[C@H]2c1ccc(N2C[C@H](CNC(=S)C(F)F)OC2=O)cc1F [Example 6] has MIC below 1 µg/mL. Can you tell? Condition met

* * *

Provide the recorded MIC for the entries that follow.
Entry format: amount then unit.

Under S. pneumoniae UC9912: report MIC of CC(=O)NC[C@H]1CN(c2ccc([C@H]3[C@@H]4CN(/C(N)=N/C#N)C[C@@H]43)c(F)c2)C(=O)O1 [Example 74] . 1 µg/mL

Look up and report measured MIC (S. pneumoniae UC9912) for the following molecule: CC(=O)NC[C@H]1CN(c2ccc([C@H]3[C@@H]4CN(C(=O)CN)C[C@@H]43)c(F)c2)C(=O)O1 [Example 35] 2 µg/mL

Output reported MIC of the molecule CCC(=O)NC[C@H]1CN(c2cc(F)c([C@H]3[C@@H]4CN(C(N)=O)C[C@@H]43)c(F)c2)C(=O)O1 [Example 63] on S. pneumoniae UC9912. 1 µg/mL

Report MIC on S. pneumoniae UC9912 for this entry: CCC(=O)NC[C@H]1CN(c2ccc([C@H]3[C@@H]4CN(C(=O)NC)C[C@@H]43)c(F)c2)C(=O)O1 [Example 24] 2 µg/mL

* * *

S. pneumoniae UC9912 MIC data
Please state the figure in µg/mL; there is no need to write the unit.

Provide measured MIC value, entry: CCC(=O)NC[C@H]1CN(c2cc(F)c([C@H]3[C@@H]4CN(C(=O)CO)C[C@@H]43)c(F)c2)C(=O)O1 [Example 64] 2

Hello, please tell me recorded MIC for this one: CCNC(=O)N1C[C@@H]2[C@H](C1)[C@H]2c1ccc(N2C[C@H](CNC(=O)CC)OC2=O)cc1F [Example 25] 4

Return value of MIC for input O=C(NC[C@H]1CN(c2ccc([C@H]3[C@@H]4CS(=O)(=O)C[C@@H]43)c(F)c2)C(=O)O1)C1CC1 [Example 53] , no commentary. 2

Return the recorded MIC value; entry: CC(=O)NC[C@H]1CN(c2cc(F)c([C@H]3[C@@H]4CN(C(=O)CO)C[C@@H]43)c(F)c2)C(=O)O1 [Example 15] 0.5

Report MIC, nothing else, for this compound: CC(=O)NC[C@H]1CN(c2ccc([C@H]3[C@@H]4CS(=O)(=O)C[C@@H]43)c(F)c2)C(=O)O1 [Example 3] 0.25

State its MIC for this compound: CC(F)(F)C(=O)NC[C@H]1CN(c2ccc([C@H]3[C@@H]4CS(=O)(=O)C[C@@H]43)c(F)c2)C(=O)O1 [Example 55] 2

Please give measured MIC of the following entry: CC(=O)NC[C@H]1CN(c2cc(F)c([C@H]3[C@@H]4COC[C@@H]43)c(F)c2)C(=O)O1 [Example 14] 0.5

Give the value of MIC reported for the following: CC(=O)NC[C@H]1CN(c2ccc([C@H]3[C@@H]4CN(CCC#N)C[C@@H]43)c(F)c2)C(=O)O1 [Example 48] 1

# return recorded MIC for input N#CCC(=O)NC[C@H]1CN(c2ccc([C@H]3[C@@H]4C[S+]([O-])C[C@@H]43)c(F)c2)C(=O)O1 (some centres unmarked) [Example 68] 1

Write down MIC measured for item CC(=O)NC[C@H]1CN(c2ccc([C@H]3[C@@H]4CN(C(=O)C5(O)CC5)C[C@@H]43)c(F)c2)C(=O)O1 [Example 31] 2

State, in one line, measured MIC of CC(=O)NC[C@H]1CN(c2ccc([C@H]3[C@@H]4CN(C(=O)c5cc[nH]n5)C[C@@H]43)c(F)c2)C(=O)O1 [Example 38] 2

State, in one line, measured MIC of N#CCC(=O)NC[C@H]1CN(c2ccc([C@H]3[C@@H]4CS(=O)(=O)C[C@@H]43)c(F)c2)C(=O)O1 [Example 69] 4

Report MIC for CCC(=O)NC[C@H]1CN(c2cc(F)c([C@H]3[C@@H]4C[S+]([O-])C[C@@H]43)c(F)c2)C(=O)O1 (some centres unmarked) [Example 58] 1

Answer with reported MIC of CC(=O)NC[C@H]1CN(c2ccc([C@H]3[C@@H]4COC[C@@H]43)c(F)c2)C(=O)O1 [Example 4] 0.5
